# System: HepG2 (hepatocellular carcinoma)
# protocol.summary: In vitro antiproliferative activity, Alamar Blue assay
# Format: cell-based
# measurement.conditions: Homo sapiens; HepG2, 24 h treatment, then three days culture, n = 2; read-out: IC50 ± SD
metric: IC50

O=C1CCC(=O)C(O)Cc2ccc(O)c(c2)-c2cc(ccc2O)C1 (stereo not drawn) = > 100 µM
O=C1CCc2ccc(O)c(c2)-c2cc(ccc2O)C[C@@H](O)[C@H](O)C1 = > 100 µM
O=C(Nc1ccc(C(F)(F)F)cc1)c1cc(Cl)ccc1O [Sal, reference compound] = 5.8 µM
COc1cc([C@@H]2c3cc4c(cc3[C@@H](O[C@@H]3O[C@@H]5CO[C@@H](C)O[C@H]5[C@H](O)[C@H]3O)[C@H]3COC(=O)[C@H]23)OCO4)cc(OC)c1O [Etoposide, etoposide, reference compound] = 20.9 µM
O=C1CCc2ccc(O)c(c2)-c2cc(ccc2O)C[C@H](O)[C@H](O)[C@H]1O = > 100 µM

Write down IC50 measured for item `O=C1C[C@H](O)[C@@H](O)Cc2ccc(O)c(c2)-c2cc(ccc2O)C[C@H]1O`
> 100 µM

----------
# protocol.summary: Storage stability in solutions and hornbeam bark extracts (UHPLC-DAD)
# Assay type: physicochemical
# measurement.conditions: 23 weeks, 5 °C, SM (methanol solution)
Marks after values point to notes of the source that are not given here.
Some compounds, each annotated with its measured concentration as compared to the initial value.

Some solved entries appear below for comparison.
O=C1CCc2ccc(O)c(c2)-c2cc(ccc2O)C[C@@H](O)[C@H](O)C1 = 81.9 ± 1.0 ^#a %
O=C1C[C@H](O)[C@@H](O)Cc2ccc(O)c(c2)-c2cc(ccc2O)C[C@H]1O = 67.1 ± 7.5 ^#aj %
O=C1CCC(=O)C(O)Cc2ccc(O)c(c2)-c2cc(ccc2O)C1 (stereo not shown) = 100.3 ± 0.5 ^ab %

Moving on to another compound below.
Write down concentration as compared to the initial value measured for item `O=C1CCc2ccc(O)c(c2)-c2cc(ccc2O)C[C@H](O)[C@H](O)[C@H]1O`
99.2 ± 0.5 ^a %

----------
Some molecules, each annotated with its measured concentration as compared to the initial value.
# protocol.summary: Storage stability in solutions and hornbeam bark extracts (UHPLC-DAD)
# Format: physicochemical
# measurement.conditions: 23 weeks, 5 °C, EM (methanol extract of bark)
Marks after values point to notes of the source that are not given here.

Some solved entries appear below for comparison.
O=C1CCc2ccc(O)c(c2)-c2cc(ccc2O)C[C@H](O)[C@H](O)[C@H]1O = 99.2 ± 1.2 ^a %
O=C1CCc2ccc(O)c(c2)-c2cc(ccc2O)C[C@@H](O)[C@H](O)C1 = 93.8 ± 1.3 ^#de %
O=C1C[C@H](O)[C@@H](O)Cc2ccc(O)c(c2)-c2cc(ccc2O)C[C@H]1O = 84.1 ± 1.1 ^#dfi %

Moving on to another molecule below.
Write down concentration as compared to the initial value measured for item O=C1CCC(=O)C(O)Cc2ccc(O)c(c2)-c2cc(ccc2O)C1 (stereo not shown)
107.0 ± 4.1%

----------
# protocol.summary: Storage stability in solutions and hornbeam bark extracts (UHPLC-DAD)
# Type: physicochemical
# measurement.conditions: 23 weeks, 5 °C, SA (aqueous solution)
Marks after values point to notes of the source that are not given here.
metric: concentration as compared to the initial value

Some solved entries appear below for comparison.
O=C1CCC(=O)C(O)Cc2ccc(O)c(c2)-c2cc(ccc2O)C1 (stereo not shown) = 100.0 ± 0.5 ^ab %
O=C1CCc2ccc(O)c(c2)-c2cc(ccc2O)C[C@@H](O)[C@H](O)C1 = 99.1 ± 0.1 ^#bcd %
O=C1C[C@H](O)[C@@H](O)Cc2ccc(O)c(c2)-c2cc(ccc2O)C[C@H]1O = 87.2 ± 0.4 ^#dfi %

Moving on to another compound below.
Write down concentration as compared to the initial value measured for item `O=C1CCc2ccc(O)c(c2)-c2cc(ccc2O)C[C@H](O)[C@H](O)[C@H]1O`
99.9 ± 0.5 ^a %

----------
Some compounds, each annotated with its measured concentration as compared to the initial value.
# protocol.summary: Storage stability in solutions and hornbeam bark extracts (UHPLC-DAD)
# Type: physicochemical
# measurement.conditions: 12 weeks, −15 °C, EM (methanol extract of bark)
Marks after values point to notes of the source that are not given here.

Some solved entries appear below for comparison.
O=C1CCc2ccc(O)c(c2)-c2cc(ccc2O)C[C@@H](O)[C@H](O)C1 = 101.6 ± 3.1 ^#bc %
O=C1C[C@H](O)[C@@H](O)Cc2ccc(O)c(c2)-c2cc(ccc2O)C[C@H]1O = 108.7 ± 1.5 ^#bc %
O=C1CCc2ccc(O)c(c2)-c2cc(ccc2O)C[C@H](O)[C@H](O)[C@H]1O = 99.8 ± 0.7 ^a %

Write down concentration as compared to the initial value measured for item O=C1CCC(=O)C(O)Cc2ccc(O)c(c2)-c2cc(ccc2O)C1 (stereo not shown)
102.8 ± 3.3 %

----------
Some compounds, each annotated with its measured concentration as compared to the initial value.
# protocol.summary: Storage stability in solutions and hornbeam bark extracts (UHPLC-DAD)
# Type: physicochemical
# measurement.conditions: 12 weeks, −15 °C, SM (methanol solution)
Marks after values point to notes of the source that are not given here.

Write down concentration as compared to the initial value measured for item `O=C1C[C@H](O)[C@@H](O)Cc2ccc(O)c(c2)-c2cc(ccc2O)C[C@H]1O`
94.0 ± 0.8 ^#efg %

Write down concentration as compared to the initial value measured for item `O=C1CCc2ccc(O)c(c2)-c2cc(ccc2O)C[C@H](O)[C@H](O)[C@H]1O`
99.1 ± 1.3 ^a %

Write down concentration as compared to the initial value measured for item O=C1CCC(=O)C(O)Cc2ccc(O)c(c2)-c2cc(ccc2O)C1 (stereo not shown)
99.1 ± 0.7 ^ab %

Write down concentration as compared to the initial value measured for item `O=C1CCc2ccc(O)c(c2)-c2cc(ccc2O)C[C@@H](O)[C@H](O)C1`
100.4 ± 1.2 ^bcd %

----------
# protocol.summary: Storage stability in solutions and hornbeam bark extracts (UHPLC-DAD)
# Format: physicochemical
# measurement.conditions: 12 weeks, 5 °C, EE (ethyl acetate extract of bark)
# Description: For the analysis of the samples from the chemical stability as well as the PAMPA studies, sample concentrations were determined using our previously developed ultrahigh-performance liquid chromatography–diode array detection (UHPLC-DAD) method validated for linearity, precision and accuracy. […] The effects of the temperature and the medium (i.e., solvent and accompanying substances) were analysed through one-way analysis of variance (ANOVA) followed by Tukey’s post hoc HSD test (p < 0.05). […]
metric: concentration as compared to the initial value

Some solved entries appear below for comparison.
O=C1CCC(=O)C(O)Cc2ccc(O)c(c2)-c2cc(ccc2O)C1 (stereo not shown) = 102.0 ± 1.7%
O=C1C[C@H](O)[C@@H](O)Cc2ccc(O)c(c2)-c2cc(ccc2O)C[C@H]1O = 104.6 ± 1.0 ^#bcg %
O=C1CCc2ccc(O)c(c2)-c2cc(ccc2O)C[C@@H](O)[C@H](O)C1 = 100.8 ± 0.5 ^#bcd %

Moving on to another molecule below.
Write down concentration as compared to the initial value measured for item `O=C1CCc2ccc(O)c(c2)-c2cc(ccc2O)C[C@H](O)[C@H](O)[C@H]1O`
99.5 ± 0.4 ^#a %

----------
# protocol.summary: Storage stability in solutions and hornbeam bark extracts (UHPLC-DAD)
# Format: physicochemical
# measurement.conditions: 23 weeks, 22 °C, EM (methanol extract of bark)
metric: concentration as compared to the initial value

O=C1CCc2ccc(O)c(c2)-c2cc(ccc2O)C[C@H](O)[C@H](O)[C@H]1O = 99.7 ± 0.3 ^#a %
O=C1CCc2ccc(O)c(c2)-c2cc(ccc2O)C[C@@H](O)[C@H](O)C1 = 95.6 ± 2.4 ^#cd %
O=C1CCC(=O)C(O)Cc2ccc(O)c(c2)-c2cc(ccc2O)C1 (stereo not shown) = 135.7 ± 9.7 %

Moving on to another molecule below.
Write down concentration as compared to the initial value measured for item `O=C1C[C@H](O)[C@@H](O)Cc2ccc(O)c(c2)-c2cc(ccc2O)C[C@H]1O`
77.7 ± 2.9 ^#ij %

----------
# protocol.summary: Storage stability in solutions and hornbeam bark extracts (UHPLC-DAD)
# Format: physicochemical
# measurement.conditions: 12 weeks, 22 °C, EM (methanol extract of bark)
Marks after values point to notes of the source that are not given here.
metric: concentration as compared to the initial value

Some solved entries appear below for comparison.
O=C1CCc2ccc(O)c(c2)-c2cc(ccc2O)C[C@H](O)[C@H](O)[C@H]1O = 101.1 ± 1.1 ^a %
O=C1C[C@H](O)[C@@H](O)Cc2ccc(O)c(c2)-c2cc(ccc2O)C[C@H]1O = 114.0 ± 2.2 ^#b %
O=C1CCc2ccc(O)c(c2)-c2cc(ccc2O)C[C@@H](O)[C@H](O)C1 = 102.7 ± 0.9 ^#bc %

Moving on to another compound below.
Write down concentration as compared to the initial value measured for item O=C1CCC(=O)C(O)Cc2ccc(O)c(c2)-c2cc(ccc2O)C1 (stereo not shown)
120.9 ± 2.6 %
